Numbers sourced from patent US20240317859A1.

Target: Human PD-1/PDCD1 Protein (PD-1) (human, UniProt Q15116 25-167, limits assumed)
Sequence (Q15116 25-167 limits assumed): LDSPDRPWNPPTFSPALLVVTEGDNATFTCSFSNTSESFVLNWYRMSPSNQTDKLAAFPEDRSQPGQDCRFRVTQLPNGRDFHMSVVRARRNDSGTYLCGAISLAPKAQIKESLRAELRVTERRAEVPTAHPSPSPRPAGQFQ
Test: SPR, Biacore 8K; PD-1 captured by anti-His antibody, antibody in flow
Protocol: The binding affinity of each antibody to human PD-1 was measured with Biacore 8K (Cytiva). […] The resultant sample solution (30 μl) was fed to each flow cell at a flow rate of 10 μl/min and the response was measured. After subtracting the response of control flow cell from the response of the flow cell which was allowed to capture the ligand, KD value was calculated by curve fitting using Biacore 8K Evaluation Software.
endpointName: Kd

Below are worked cases with known answers.
humanized HM242-C3-IgG1-K322A (antibody, V domains shown) VH: QVQLVQSGPEVKKPGASVKVVCKASGYTFTSYYIQWVKQRPGQGLEWIGWIYPGDGTTKYNEKFKGRVTMTIDKSTRTAYMELRSLRSDDTAVYYCASYYGSYFDYWGQGTLVTVSS VL: DIQMTQSPSSLSASVGDRVTITCRASQDISNYLNWYQQKPGKAPKLLIYYTSKLHSGVPSRFSGSGSGTDYTLTISSLQPEDFATYYCQQSSTLPFTFGQGTKLEIKR = < 0.0186 nM
HM297-F6 (antibody, human IgG1, V domains shown, also called humanized HM297, VH ver.F / VL ver.6) VH: QVQLVQSGPEVKKPGASVKIPCKASGYTFTDYNVDWVRQSHGKSLEWIGDIDPNNGGTIYNQKFKDRVTMTVDKSTRTAYMELRSLRSDDTAVYYCARWRGAMDYWGQGTLVTVSS VL: DIQMTQSPSSLSASVGDRVTITCRASQDIDNYLKWYQQKPGKAPKLLIYDTSRLHSGVPSRFSGSGSGTDYTLTISSLQPEDFATYYCQQGYTLPWTFGQGTKLEIK = 4.83 nM

Now consider a different binder.
*Q* For humanized HM268-K8-IgG1-K322A (antibody, V domains shown) VH: QVQLVQSGPEVKKPGASVKVVCKTSGYTFTSYYIQWLKQRPGQGLEWIGWIYFGDASTKYNEKFKGRVTMTADKSTSTAYMELRSLRSDDTAVYYCASYYGSYFDYWGQGTTVTVSS VL: DIQMTQSPSSLSASVGDRVTITCRASQDISNYLNWYQQKPDGTVKLLIYSTSRLHSGVPSRFSGSGSGTDYTLTISSLQPEDFATYYCQQGSTLPFTFGQGTKLEIKR , what is its reported Kd?
*A* < 0.00306 nM
